- SUBJECT OF TEST: recombinant human 5-HT4 receptor (Homo sapiens, UniProt Q13639)
- Construct: expressed in transfected cells
- Sequence (Q13639 whole entry): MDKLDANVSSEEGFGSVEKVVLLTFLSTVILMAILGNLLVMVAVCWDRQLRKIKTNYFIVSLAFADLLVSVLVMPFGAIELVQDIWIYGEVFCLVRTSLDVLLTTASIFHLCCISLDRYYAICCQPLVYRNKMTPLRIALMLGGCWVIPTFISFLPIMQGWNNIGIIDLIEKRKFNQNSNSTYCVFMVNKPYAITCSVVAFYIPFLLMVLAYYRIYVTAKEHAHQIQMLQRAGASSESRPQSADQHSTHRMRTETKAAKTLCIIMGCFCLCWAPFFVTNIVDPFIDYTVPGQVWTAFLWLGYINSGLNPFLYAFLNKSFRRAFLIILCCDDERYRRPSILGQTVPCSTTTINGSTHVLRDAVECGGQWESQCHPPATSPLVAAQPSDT
- ASSAY OVERVIEW: Determination of EC50 values for 5-HT4 receptor (CHO cells, pCRE-Luc reporter)
- Type: cell-based
- CONDITION INFO: CHO, CHO cells, human 5-HT4 receptor, luciferase reporter; read-out: Emax
- Procedure: Determination of EC50 Values for 5-HT4 Receptor A stable CHO cell line expressing recombinant human 5-HT4 receptor and pCRE-Luc reporter system was used for cell-based assay. The assay offers a non-radioactive based approach to determine binding of a compound to GPCRs. In this specific assay, the level of intracellular cyclic AMP, which is modulated by activation, or inhibition of the receptor is measured. […]
ASSAY ENDPOINT: Emax (%)
Answer format: numeric, % implied, no suffix.

Examples with answers:
{"COMPOUND": "CC(C)(O)CN1CCC(F)(CNC(=O)c2cc(Cl)c(N)c3cccnc23)CC1", "SUBJECT OF TEST": "recombinant human 5-HT4 receptor (Homo sapiens, UniProt Q13639)", "Emax (%)": 74}
{"COMPOUND": "CC(C)(F)CN1CCC(CNC(=O)c2cc(Cl)c(N)c3cccnc23)CC1", "SUBJECT OF TEST": "recombinant human 5-HT4 receptor (Homo sapiens, UniProt Q13639)", "Emax (%)": 58}
{"COMPOUND": "Nc1c(Cl)cc(C(=O)NC2CCN(CC3CCOCC3)CC2)c2ncccc12", "SUBJECT OF TEST": "recombinant human 5-HT4 receptor (Homo sapiens, UniProt Q13639)", "Emax (%)": 79}

Query string: Specify reported Emax for the compound shown: Nc1c(Cl)cc(C(=O)NCC2[C@H]3CN(CC4CCOCC4)C[C@@H]23)c2ncccc12 (mixture of isomers)
Result string: 54

Query string: Specify reported Emax for the compound shown: Nc1c(Cl)cc(C(=O)NCC2C3CN(CCF)CC23)c2ncccc12 (stereo not drawn)
Result string: 65

Query string: Specify reported Emax for the compound shown: `Nc1c(Cl)cc(C(=O)NCC2CCN(CC3(O)CCOCC3)CC2)c2ncccc12`
Result string: 65
